Below, each of the compounds is paired with its reported melting point value.
quantityKind: melting point

[[record]]
compound = "OCCCOc1c(Cl)cc(OCC=C(Cl)Cl)cc1Cl"
reportedvalue = "56.6 °C"

[[record]]
compound = "CC1=NC(=NOC(=O)NC(C)C)SC1(C)C"
reportedvalue = "114 to 116 °C"

[[record]]
compound = "CCCCOc1c(C(=O)O)n(CC2CC2)c(=O)c2ccc(OCc3ccccc3)cc12"
reportedvalue = "178 to 179 °C"

[[record]]
compound = "Oc1ccccc1-c1cc(-c2ccc3c(c2)OCO3)cc(-c2ccc3ccccc3c2)n1"
reportedvalue = "195 to 196 °C"

[[record]]
compound = "O=c1c2c(oc3ccccc13)O2"
reportedvalue = "66 to 67 °C"

[[record]]
compound = "CCOc1cc(Cn2cc(CCC(=O)O)c(OCC)n2)ccc1OCc1nc(-c2ccccc2)oc1C"
reportedvalue = "105 to 106 °C"

[[record]]
compound = "O=C(O)C1Cc2c(c(Br)cc3c(=O)c4ccccc4oc23)O1 (stereo not given)"
reportedvalue = "283 to 286 °C"

[[record]]
compound = "Fc1ccc(-c2ncc(Br)cn2)cc1"
reportedvalue = "156 °C"

[[record]]
compound = "Cc1cc(NC(=O)c2cnccn2)nc(C)c1[N+](=O)[O-]"
reportedvalue = "158 °C"

[[record]]
compound = "O=C(/C=C/C=C(c1ccc(Cl)cc1)c1ccc(Cl)cc1)NCCCCc1cccnc1"
reportedvalue = "146 to 147 °C"

[[record]]
compound = "N#Cc1cc2c(c(C(=O)O)c1-c1ccccc1)NCCC2C(=O)O (stereo not given)"
reportedvalue = "231 to 232 °C"

[[record]]
compound = "Cc1nc(-n2ccc(O)cc2=O)sc1C(=O)NCCc1ccc(F)cc1"
reportedvalue = "225 to 227 °C"

[[record]]
compound = "CCOC(=O)NNC=Nc1nc(-c2ccc(C3CCCCC3)cc2)cs1"
reportedvalue = "188 to 189 °C"

[[record]]
compound = "O=C(NC1CCOCC1)c1ccc(-c2cc(-c3c(-c4ccccn4)nc4ccccn34)ccn2)cc1"
reportedvalue = "179 °C"

[[record]]
compound = "NCCCn1nc2c3c(c(Cl)ccc31)C(=O)c1c(OCc3ccccc3)ccc(OCc3ccccc3)c1-2"
reportedvalue = "180 to 184 °C"

[[record]]
compound = "C[C@H](COc1ccc(F)cc1)Nc1nc(Cl)nc2c1ncn2[C@@H]1O[C@H](CO)[C@@H](O)[C@H]1O"
reportedvalue = "172 to 173 °C"

[[record]]
compound = "Cc1cc(NC(=O)c2cccc(CSc3ncnc4[nH]ncc34)c2)ccc1C(C)C"
reportedvalue = "187 to 189 °C"

[[record]]
compound = "N#Cc1c(F)nc2ccc([N+](=O)[O-])cc2c1F"
reportedvalue = "128 to 129 °C"

[[record]]
compound = "C[C@H](Cn1cccn1)n1cnc2cc3c(=O)n([C@H](C)Cn4cc(Cl)cn4)cnc3cc2c1=O"
reportedvalue = "231 to 232 °C"

[[record]]
compound = "ON=Cc1sc(Cl)nc1Cl"
reportedvalue = "160 °C"


---

quantityKind: melting point

[[record]]
compound = "O=C(O)CCCCCCCCCCNC(=O)C(CS)Cc1ccccc1 (centres undefined)"
quantitykind = "melting point"
reportedvalue = "104 to 105 °C"

[[record]]
compound = "O=[N+]([O-])c1cc(F)cc(I)c1O"
quantitykind = "melting point"
reportedvalue = "40 °C"

[[record]]
compound = "O=C(O)C1=Cc2cc(C#Cc3ccccc3)ccc2OC1C(F)(F)F (centres undefined)"
quantitykind = "melting point"
reportedvalue = "240 to 241 °C"

[[record]]
compound = "COc1cccc2c1CC(C(=O)NCCOc1ccc(C(=O)OC(C)(C)C)cc1)N2S(=O)(=O)c1ccc(-c2ccc(F)cc2F)cc1 (centres undefined)"
quantitykind = "melting point"
reportedvalue = "135 °C"

[[record]]
compound = "O=S1N=C(NCCCN(Cc2ccccc2)c2ccccn2)C(NCc2ccccn2)=N1 (centres undefined)"
quantitykind = "melting point"
reportedvalue = "139 to 140 °C"

[[record]]
compound = "Cc1cc2ncnn2nc1OCCOCCN1CCN(C(c2ccccc2)c2ccccc2)CC1"
quantitykind = "melting point"
reportedvalue = "71 to 72 °C"

[[record]]
compound = "CCCc1c(OCCCCCc2ccc3cc(OC)c(OC)cc3c2)ccc(C(=O)O)c1O"
quantitykind = "melting point"
reportedvalue = "135 to 137 °C"

[[record]]
compound = "O=C(O)c1cc2ccsc2nc1C(=O)O"
quantitykind = "melting point"
reportedvalue = "272 to 275 °C"

[[record]]
compound = "CN(CCN1CCNC1=O)Cc1cn(-c2ccc(F)cc2)c2ccc(Cl)cc12"
quantitykind = "melting point"
reportedvalue = "141 to 143 °C"


---

Below, each of the compounds is paired with its reported melting point value.
quantityKind: melting point

[[record]]
compound = "CC(=NOCCOc1ccc(CC2SC(=O)NC2=O)cc1)c1ccc(-c2ccccc2)cn1 (centres undefined)"
reportedvalue = "136 to 138 °C"

[[record]]
compound = "COc1ccc(CSC2=NC(c3cccc([N+](=O)[O-])c3)C(C(=O)O)=C(C)N2)cc1 (centres undefined)"
reportedvalue = "90 °C"

[[record]]
compound = "COc1cc(C(F)(F)F)sc1CN1C(=O)C2(COc3cc4c(cc32)OCO4)c2ccccc21 (centres undefined)"
reportedvalue = "178 to 180 °C"

[[record]]
compound = "CS(=O)(=O)c1ccc(-c2cnn(-c3ccc([N+](=O)[O-])cc3)c(=O)c2-c2ccc(F)cc2)cc1"
reportedvalue = "110 to 116 °C"

[[record]]
compound = "CC(=O)Nc1nc2c(s1)-c1c(c(-c3c[nH]cn3)nn1-c1ccccc1Cl)CC2"
reportedvalue = "287 to 288 °C"

[[record]]
compound = "Nc1nc(COCc2ccccc2)nc2nccnc12"
reportedvalue = "112 to 114 °C"

[[record]]
compound = "O=CNCS(=O)(=O)c1ccccc1"
reportedvalue = "106 to 107 °C"

[[record]]
compound = "CCc1nc(N)nc(N)c1CCCc1cc(Cl)c(Cl)cc1Cl"
reportedvalue = "168 to 182 °C"

[[record]]
compound = "CN1C(=O)CC[C@]2(C)c3ccc(-c4ccc(NC(=O)C(C)(C)C)cc4)cc3CC[C@@H]12"
reportedvalue = "> 265 °C"


---

quantityKind: melting point

[[record]]
compound = "O=C(NCC#Cc1ccc(C#CCNC(=O)OCc2ccccc2)nc1)OCc1ccccc1"
reportedvalue = "156 to 158 °C"

[[record]]
compound = "CC(C)(C)OC(=O)C(CO)NC(=O)c1coc(-c2cocn2)n1 (stereo not given)"
reportedvalue = "85 to 87 °C"

[[record]]
compound = "Cc1cccc(C(=O)n2nc(Nc3cccc(OCC(=O)N4CCNCC4)c3)nc2N)c1"
reportedvalue = "169 to 171 °C"

[[record]]
compound = "CC(c1oc2ccccc2c(=O)c1-c1cccc(F)c1)n1nc(-c2ccc(Cl)s2)c2c(N)ncnc21 (stereo not given)"
reportedvalue = "226 to 229 °C"

[[record]]
compound = "Cc1ccc(CN2Cc3cncn3C(c3ccc(C#N)cc3)C2=O)cc1 (stereo not given)"
reportedvalue = "168 to 170 °C"

[[record]]
compound = "CN1Cc2c(I)ncn2-c2cccc(Br)c2C1=O"
reportedvalue = "203 to 204 °C"

[[record]]
compound = "Brc1ccc2c(c1)Sc1ccccc1CC2"
reportedvalue = "69 to 71 °C"

[[record]]
compound = "COc1ccc(CNc2n[nH]c3ncnc(Nc4cccc(Cl)c4)c23)cc1Cl"
reportedvalue = "205 to 208 °C"

[[record]]
compound = "CN(C)Nc1cc(Oc2nn(C)c(C(F)(F)F)c2Cl)ccc1[N+](=O)[O-]"
reportedvalue = "72 to 76 °C"

[[record]]
compound = "CCCC1(S(=O)(=O)CCC(=O)OC)c2ccccc2-c2ccccc21"
reportedvalue = "74 to 77 °C"

[[record]]
compound = "CC1(C)N=C(O)N=C(NC(=O)c2nc(Cl)c(N)nc2N)N1"
reportedvalue = "266 to 268 °C"

[[record]]
compound = "CCOC(=O)Cc1cccc(-c2nc(COc3ccc(CCl)cc3OC)c(C)o2)c1"
reportedvalue = "95 to 96 °C"

[[record]]
compound = "COc1ccccc1CN[C@H]1CCCN(CCO)[C@H]1c1ccccc1 (relative stereo)"
reportedvalue = "148 to 149 °C"

[[record]]
compound = "COc1cc2c(cc1OC)C1=NNC(c3ccc(Cl)cc3)C1CCC2 (stereo not given)"
reportedvalue = "160 to 163 °C"

[[record]]
compound = "CCOC(=O)c1cc(-n2c(=O)[nH]c(C)c(C)c2=O)ccc1Cl"
reportedvalue = "202 to 204 °C"

[[record]]
compound = "CCOc1c(C(=O)O)cnc2nn(C)cc12"
reportedvalue = "222 to 225 °C"

[[record]]
compound = "COC(=O)c1ccccc1S(=O)(=O)N1CCC2(C=Cc3ccccc32)CC1"
reportedvalue = "150 to 152 °C"

[[record]]
compound = "CC1(C)Oc2ccc(C#N)cc2[C@H](N(Cc2ncc[nH]2)c2ccc(Cl)cc2)[C@H]1O"
reportedvalue = "266 to 267 °C"

[[record]]
compound = "COc1cc(CN)nc(SC)n1"
reportedvalue = "35 to 38 °C"

[[record]]
compound = "CC(=O)Nc1cc(Oc2ccc3c(C(=O)Nc4ccc(CN5CCNCC5)c(C(F)(F)F)c4)cccc3c2)ncn1"
reportedvalue = "194 to 197 °C"

[[record]]
compound = "CNC(=O)[C@H](CCCCNC(=O)OCc1ccccc1)NC(=O)OC(C)(C)C"
reportedvalue = "100 to 102 °C"

[[record]]
compound = "CCCC(=O)NCCCc1cccc(OCC2CC2)c1"
reportedvalue = "36 to 37 °C"

[[record]]
compound = "N#CC(C(=O)Nc1ccccc1)C(=O)c1nn(-c2ccccc2)c2c1COc1ccccc1-2 (stereo not given)"
reportedvalue = "280 to 282 °C"

[[record]]
compound = "Cn1ncc(/C=C/C(=O)Nc2ccc(C(=O)O)cc2)c1-c1ccc(F)cc1"
reportedvalue = "291 to 292 °C"

[[record]]
compound = "COc1ccc2c(c1)c(CCNC(C)=O)cn2S(=O)(=O)c1ccccc1"
reportedvalue = "140 to 141 °C"

[[record]]
compound = "CCN(CC)c1ccc(S(=O)(=O)NCCCCC(=O)O)cc1"
reportedvalue = "106 to 108 °C"

[[record]]
compound = "COC(=O)c1cc(-c2ccncc2)cc2c1OC(c1ccccc1)(c1ccccc1)O2"
reportedvalue = "151 to 152 °C"

[[record]]
compound = "CCn1c(=O)n(CCCCC(C)(O)CC)c(=O)c2c1ncn2Cc1ccccc1 (stereo not given)"
reportedvalue = "93 to 94 °C"

[[record]]
compound = "Fc1ccc(-n2nc(-c3nc(-c4ccccc4)cs3)c3c2C2CCC3C2)c(F)c1 (stereo not given)"
reportedvalue = "128 to 130 °C"

[[record]]
compound = "COc1cc(OC)c2cnnc(Cl)c2c1"
reportedvalue = "167 °C"

[[record]]
compound = "COC(=O)CC(C)C(=O)c1ccc(O)cc1 (stereo not given)"
reportedvalue = "89 to 91 °C"

[[record]]
compound = "COC[C@H]1CC[C@H](c2ccc(I)cc2)CC1"
reportedvalue = "40.3 to 42.3 °C"

[[record]]
compound = "COc1cccc(CS[C@H]2C[C@@H](C(N)=O)N(C)C2)c1"
reportedvalue = "113 to 114 °C"

[[record]]
compound = "Cc1ccccc1OCC(O)CNC(C)COc1cccnc1C(N)=O (stereo not given)"
reportedvalue = "145 to 161 °C"

[[record]]
compound = "CC(=O)NNc1ccnc2c(NC(=O)c3c(Cl)cccc3Cl)c(C)ccc12"
reportedvalue = "> 250 °C"

[[record]]
compound = "CCN1CCN(c2cccc3ccc(NC(=O)c4ccc(Cl)cc4)cc23)CC1"
reportedvalue = "173 to 174 °C"

[[record]]
compound = "O=C(O)/C=C/c1ccc(-c2ccc(O)c(C34CC5CC(CC(C5)C3)C4)c2)c(Cl)c1"
reportedvalue = "257 to 259 °C"

[[record]]
compound = "Cc1nc(CN(C(=O)CCl)c2c(C)cccc2C)cs1"
reportedvalue = "62 to 64 °C"

[[record]]
compound = "O=C(Nc1cccc(-c2ccnc3c(C(=O)c4cccs4)cnn23)c1)c1cccc(Br)c1"
reportedvalue = "> 300 °C"

[[record]]
compound = "O=C1CC2c3c(Br)cccc3CCC23OCC(c2ccccc2)N13 (stereo not given)"
reportedvalue = "123 to 126 °C"

